# Test system: Rattus norvegicus
# Assay comment: Number of rats protected at a dose of 30 mg/Kg when given oral at 0.5 hr upon maximal electroshock seizure; Total number of rats = 4
# Type: functional
Assignment: determine reported Activity for the given compounds.

Looking for the measured Activity of Cc1ccc2[nH]c(O)c(/N=N/C(=O)Nc3c(C)cccc3C)c2c1 , can you help?
1

Looking for the measured Activity of Cc1cccc(C)c1NC(=O)N/N=C/c1ccccc1Cl , can you help?
1

Looking for the measured Activity of Cc1cccc(C)c1NC(=O)N/N=C/c1cccc([N+](=O)[O-])c1 , can you help?
1

Looking for the measured Activity of Cc1cccc(C)c1NC(=O)/N=N/c1c(O)[nH]c2ccc(F)cc12 , can you help?
1

Looking for the measured Activity of COc1ccc(/C=N/NC(=O)Nc2c(C)cccc2C)cc1 , can you help?
4

Looking for the measured Activity of Cc1cccc(C)c1NC(=O)/N=N/c1c(O)[nH]c2ccc(Cl)cc12 , can you help?
1
